# Target of assay: STING AQ: His-TVMV-S-hSTING(155-341)-G230A-R293Q (Homo sapiens, UniProt Q86WV6, G230A/H232R/R293Q)
# Construct: STING AQ: His-TVMV-S-hSTING(155-341)-G230A-R293Q
# Sequence (Q86WV6 with tags, fused parts or gaps G230A/H232R/R293Q): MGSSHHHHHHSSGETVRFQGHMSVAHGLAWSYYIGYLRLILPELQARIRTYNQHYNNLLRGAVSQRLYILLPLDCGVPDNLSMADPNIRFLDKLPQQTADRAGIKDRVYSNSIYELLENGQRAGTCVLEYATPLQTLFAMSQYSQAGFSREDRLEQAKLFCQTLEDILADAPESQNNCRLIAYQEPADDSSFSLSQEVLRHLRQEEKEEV
# Protocol text: STING HTRF binding assay, STING AQ
# Condition: 20 nM His-tagged STING cytoplasmic domain AQ, 40 nM fluorescein-labeled cGAMP analog probe, one hour; read-out: HTRF Binding Assays IC50 (μM) AQ
So basically: is IC50 under 1 µM? Then 1. Not under? Then -1.

Check out these entries, answers already filled in.
NC(=O)c1cc([C@@H]2O[C@@H]3COP(=O)(S)O[C@H]4[C@@H](F)[C@H](n5cnc6c(N)ncnc65)O[C@@H]4COP(=O)(S)O[C@@H]2[C@@H]3F)ccn1 (single isomer, unassigned) [Example 4-2]    1
C=C1[C@H]2OP(=O)(S)OC[C@H]3O[C@@H](n4cnc5c(N)ncnc54)[C@H](F)[C@@H]3OP(=O)(S)OC[C@H]1O[C@H]2c1ccnc(C(N)=O)c1 (single isomer, unassigned) [Example 3-1]    1
NC(=O)c1cc([C@@H]2O[C@@H]3COP(=O)(S)O[C@H]4[C@@H](F)[C@H](n5cnc6c(N)ncnc65)O[C@@H]4COP(=O)(S)O[C@@H]2[C@@H]3O)ccn1 (single isomer, unassigned)    1
NC(=O)c1cc([C@@H]2O[C@@H]3COP(=O)(S)O[C@H]4[C@@H](F)[C@H](n5cnc6c5ncn5ccnc65)O[C@@H]4COP(=O)(S)O[C@@H]2[C@@H]3O)ccn1 (single isomer, unassigned)    -1
CNC(=O)c1cc([C@@H]2O[C@@H]3COP(=O)(S)O[C@H]4[C@@H](F)[C@H](n5cnc6c(N)ncnc65)O[C@@H]4COP(=O)(S)O[C@@H]2[C@@H]3O)ccn1 (single isomer, unassigned) [Example 2-4]    -1

Task: Input C=C1[C@H]2OP(=O)(S)OC[C@H]3O[C@@H](n4cnc5c(N)ncnc54)[C@H](F)[C@@H]3OP(=O)(S)OC[C@H]1O[C@H]2c1ccnc(C(N)=O)c1 (single isomer, unassigned) [Example 3-3] ; condition: IC50 strictly below 1 µM. Does it hold?
Output: -1
